The values you see were collected from PubChem BioAssay AID588501.

# tested.on: Lethal factor (Bacillus anthracis)
# assay.procedure: anthrax lethal factor cleavage blockers – biochemical, multiplex microsphere, MLPCN library, primary screen (AID 588501); note: plate controls were buffer without enzyme for full effect and enzyme alone for no effect
# protocol.conditions: multiplex microsphere protease cleavage assay, LF; at 10 µM; hits give high values
Among all 360,000 compounds or so, about 420 (0.12%) were called active. Only a selection was taken, and actives are over-represented in it overall.
Please respond with reported inhibition for every item in the list.
Numbers only, in %.

Look over these answered cases.
>  <compound>
O=S(N1CCCCCC1)C12CC3CC(CC(C3)C1)C2 (stereo unspecified)

>  <result.unit>
%

>  <inhibition>
-5.3

$$$$
>  <compound>
CNC(=O)c1c(NC(NC(=O)c2ccco2)C(=O)c2ccc(Cl)cc2)sc2c1CCCC2 (stereo unspecified)

>  <result.unit>
%

>  <inhibition>
-4.6

$$$$
>  <compound>
COCCn1c(N)c(NCc2ccccc2)c(=O)[nH]c1=O

>  <result.unit>
%

>  <inhibition>
-3.2

$$$$
>  <compound>
C#CCNC(=O)[C@H](Cc1ccc(C(=O)c2ccccc2)cc1)NC(=O)OC(C)(C)C

>  <result.unit>
%

>  <inhibition>
-1

$$$$
>  <compound>
Cc1ccc(NC(=O)C2CCN(S(=O)(=O)c3ccc4c(c3)NC(=O)CO4)CC2)cc1C

>  <result.unit>
%

>  <inhibition>
1.3

$$$$

Field: next compound
Prompt line: Entry N#CC(Cc1cc2ccccc2n1S(=O)(=O)c1ccccc1)OCc1ccccc1 (stereo unspecified) , system Lethal factor (Bacillus anthracis): what inhibition was measured?
Response line: -10.4

====

# tested.on: Lethal factor (Bacillus anthracis)
# assay.procedure: anthrax lethal factor cleavage blockers – biochemical, multiplex microsphere, MLPCN library, primary screen (AID 588501); note: plate controls were buffer without enzyme for full effect and enzyme alone for no effect
# protocol.conditions: multiplex microsphere protease cleavage assay, LF; at 10 µM; hits give high values
Out of some 360,000 compounds screened, about 420 (0.12%) were called active. Only a selection was taken, and actives are over-represented in it overall.
reported.endpoint: inhibition (%)
Give bare numbers, in %.

Illustrative cases are given below, each with its answer.
>  <molecule>
O=C(Nc1nnc(C2CC2)s1)C1=NN(C2CCS(=O)(=O)C2)C(=O)CC1 (stereo unspecified)

>  <result.unit>
%

>  <inhibition>
1.6

$$$$
>  <molecule>
COc1ccc(OCC(=O)NCCc2ccc(S(N)(=O)=O)cc2)cc1

>  <result.unit>
%

>  <inhibition>
-1.2

$$$$
>  <molecule>
Cn1c(SCC(=O)c2ccccc2)ncc(C(=O)Nc2ccc(F)cc2)c1=O

>  <result.unit>
%

>  <inhibition>
-1.5

$$$$
>  <molecule>
Brc1ccc2ncnc(NCc3cccnc3)c2c1

>  <result.unit>
%

>  <inhibition>
42.4

$$$$
>  <molecule>
OCC[C@H]1C[C@@H](O)[C@H](O)[C@@]2(OCCc3ccccc32)O1

>  <result.unit>
%

>  <inhibition>
3.4

$$$$

Your task in this section: give inhibition for each listed record.
1. COc1ccc(C(=O)Nc2nc(-c3ccc(OC)cc3)c(-c3ccc([N+](=O)[O-])cc3)s2)cc1
2. O=C(NN1C(=O)C2CCCCC2C1=O)c1ccco1 (stereo unspecified)

Response line:
30.1
15.5

Would you mind listing inhibition for each of the following molecules?
1. O=C(c1ccc(F)cc1)n1c(=S)nc2ccccn21
2. COc1cc2c(cc1OC)C(/C=C/c1ccco1)=NCC2
3. CCCCC(CC)CNCc1cccn1CCN1CCOCC1 (stereo unspecified)

Response line:
-9.4
-4.6
9
